- Test Details: Oral bioavailability in dog
- Assay type: ADME, organism-based, Canis lupus familiaris
- Test Context: in vivo
Value Type: bioavailability (%)

{"Chemical Structure": "C=C(C)[C@@H]1CC[C@]2(NCCN3CCS(=O)(=O)CC3)CC[C@]3(C)[C@H](CC[C@@H]4[C@@]5(C)CC=C(c6ccc(C(=O)O)cc6)C(C)(C)[C@@H]5CC[C@]43C)[C@@H]12", "Readout Number": 9}

====

- Test Details: Volume of distribution at steady state in dog
- Assay type: ADME, Canis lupus familiaris
- Test Context: in vivo, read-out: Vdss
Value Type: Vd (L/kg)

{"Chemical Structure": "C=C(C)[C@@H]1CC[C@]2(NCCN3CCS(=O)(=O)CC3)CC[C@]3(C)[C@H](CC[C@@H]4[C@@]5(C)CC=C(c6ccc(C(=O)O)cc6)C(C)(C)[C@@H]5CC[C@]43C)[C@@H]12", "Value Type": "Vd", "Readout Number": 0.43}
